Target: KRAS G12V (Homo sapiens, UniProt P01116, G12V)
Sequence (P01116 1-188 isoform P01116-2 G12V): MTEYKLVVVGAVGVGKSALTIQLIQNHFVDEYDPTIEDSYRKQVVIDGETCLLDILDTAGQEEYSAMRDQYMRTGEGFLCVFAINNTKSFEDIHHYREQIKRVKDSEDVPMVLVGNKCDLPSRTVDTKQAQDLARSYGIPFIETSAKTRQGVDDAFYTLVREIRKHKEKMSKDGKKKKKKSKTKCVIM
Experiment: HTRF KRAS-SOS1 interaction assay, KRAS G12V
Conditions: binned ≤2 μM / >2 μM, read-out: Inhibition of KRAS G12V (IC50)
Entries and their measured IC50 follow.
PROPERTY MEASURED: IC50

COMPOUND: N#Cc1c(N)sc2c(F)ccc(-c3c(Cl)c4c5c(nc(OC[C@@]67CCCN6C[C@H](F)C7)nc5c3F)N([C@H](C/C=C\C(F)(F)F)c3cccnc3N)CCO4)c12
REPORTED RESULT: ≤ 2 µM
--
COMPOUND: C[C@H](c1cccnc1N)N1CCOc2c(Cl)c(-c3ccc(F)c4sc(N)c(C#N)c34)c(F)c3nc(OCC45CCCC4CCC5)nc1c23 (single isomer, unassigned) [Compound 674]
REPORTED RESULT: > 2 µM
--
COMPOUND: N#Cc1c(N)sc2c(F)ccc(-c3c(Cl)c4c5c(nc(OC[C@@]67CCCN6C[C@H](F)C7)nc5c3F)N([C@H](/C=C/C(F)F)c3cccnc3N)CCO4)c12
REPORTED RESULT: ≤ 2 µM
--
COMPOUND: C[C@H](c1cc(Cl)cnc1N)N1CCOc2c(C(F)(F)F)c(-c3ccc(F)c4sc(N)c(C#N)c34)c(F)c3nc(OCC4(CN5CCC(=CF)CC5)CC4)nc1c23
REPORTED RESULT: ≤ 2 µM

* * *

Target: KRAS WT (Homo sapiens)
Sequence (P01116 1-188 isoform P01116-2): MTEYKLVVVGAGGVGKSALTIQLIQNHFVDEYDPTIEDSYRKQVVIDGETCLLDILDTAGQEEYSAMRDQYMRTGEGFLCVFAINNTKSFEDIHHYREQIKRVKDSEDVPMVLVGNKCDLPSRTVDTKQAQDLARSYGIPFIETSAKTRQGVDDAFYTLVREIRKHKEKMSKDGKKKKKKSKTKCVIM
Assay: HTRF KRAS-SOS1 interaction assay, wildtype KRAS
Conditions: binned ≤2 μM / >2 μM, read-out: Inhibition of KRAS WT (IC50)
pIC50: −log10 of the molar value.
Entries and their measured pIC50 follow.

COMPOUND: C[C@@H]1CN(CC2(COc3nc4c5c(c(C(F)(F)F)c(-c6ccc(F)c7sc(N)c(C#N)c67)c(F)c5n3)OCCN4[C@H](C)c3cccnc3N)CC2)CCO1 (single isomer, unassigned) [Compound 826]
pIC50: < 5.70

COMPOUND: C[C@H](c1cccnc1N)N1CCOc2nc(-c3ccc(F)c4sc(N)c(C#N)c34)c(F)c3nc(OC[C@@H]4CCCN4C)nc1c23 (single isomer, unassigned)
pIC50: ≥ 5.70

COMPOUND: CCN(CC)CCC[C@H](c1cccnc1N)N1CCOc2c(C(F)(F)F)c(-c3ccc(F)c4sc(NC)c(C#N)c34)c(F)c3nc(OC[C@@]45CCCN4C[C@H](F)C5)nc1c23 (single isomer, unassigned)
pIC50: ≥ 5.70

COMPOUND: N#Cc1c(N)sc2c(F)ccc(-c3c(C(F)(F)F)c4c5c(nc(OC[C@@]67CCCN6C[C@@]6(CC6(F)F)C7)nc5c3F)N([C@@H](c3cccnc3N)C(F)F)CCO4)c12 (single isomer, unassigned) [Compound 897]
pIC50: < 5.70
